# PROCEDURE DETAILS: TLN-4601 concentrations in plasma and tissues of rats with C6 orthotopic brain tumors
# Type: in vivo
# STUDY CONDITIONS: Sprague-Dawley, rat, tumor / plasma, intravenous; read-out: tumor compared to plasma
METRIC: Kp at 60 min
Answers are plain numbers.

Q: Returns the measured Kp at 60 min for the input molecule. Input: CC(C)=CCC/C(C)=C/CC/C(C)=C/CN1C(=O)c2cccc(O)c2Nc2c(O)cc(O)cc21
Result: 11

###

# Test system: central benzodiazepine receptor (CBR; GABAA)
# PROCEDURE DETAILS: CBR (GABAA) radioligand binding assay, [3H]flunitrazepam, rat brain
# STUDY CONDITIONS: 10 μM
Tick Fulfilled if Percentage of inhibition or binding activity, CBR is 10% or greater. Tick Not fulfilled if Percentage of inhibition or binding activity, CBR is less than 10%.

Some solved entries appear below for comparison.
COc1cc(O)cc2c1Nc1c(O)cccc1C(=O)N2C/C=C(\C)CC/C=C(\C)CCC=C(C)C : Fulfilled
CC(C)=CCC/C(C)=C/CC/C(C)=C/CN1C(=O)c2cccc(O)c2N(C)c2c(O)cc(O)cc21 : Fulfilled
COc1cccc2c1Nc1c(O)cc(O)cc1N(C/C=C(\C)CC/C=C(\C)CCC=C(C)C)C2=O : Fulfilled
COc1cc(OC)c2c(c1)N(C/C=C(\C)CC/C=C(\C)CCC=C(C)C)C(=O)c1cccc(O)c1N2 : Fulfilled

Now consider a different compound.
Q: Determine whether measured Percentage of inhibition or binding activity, CBR meets or exceeds 10% for COc1cc(OC)c2c(c1)N(CC=C(C)CCC=C(C)CCC=C(C)C)C(=O)c1cccc(OC)c1N2
Result: Not fulfilled

###

# PROCEDURE DETAILS: TLN-4601 concentrations in plasma and tissues of rats with C6 orthotopic brain tumors
# Assay type: in vivo
# STUDY CONDITIONS: Sprague-Dawley, rat, plasma, intravenous; CIV for 60 min; read-out: concentration in plasma
METRIC: concentration at 60 min (ng/g)
Answers are plain numbers, in ng/g.

Q: Returns the measured concentration at 60 min for the input compound. Input: CC(C)=CCC/C(C)=C/CC/C(C)=C/CN1C(=O)c2cccc(O)c2Nc2c(O)cc(O)cc21
Result: 16200

###

# System: ACAT
# PROCEDURE DETAILS: ACAT enzyme assay, [14C]cholesterol ester quantitation
# Format: biochemical, rat
# STUDY CONDITIONS: 10 μM
METRIC: Percentage of inhibition or binding activity, ACAT

COc1cc(OC)c2c(c1)N(CC=C(C)CCC=C(C)CCC=C(C)C)C(=O)c1cccc(OC)c1N2 : 40%
COc1cccc2c1Nc1c(OC)cc(O)cc1N(CC=C(C)CCC=C(C)CCC=C(C)C)C2=O : 95%

// for each compound below, give its Percentage of inhibition or binding activity, ACAT
1. CC(C)CCCC(C)CCCC(C)CCN1C(=O)c2cccc(O)c2Nc2c(O)cc(O)cc21 (stereo not shown)
2. CC(C)=CCC/C(C)=C/CC/C(C)=C/CN1C(=O)c2cccc(O)c2N(C)c2c(O)cc(O)cc21
3. CC(=O)Oc1cc(O)c2c(c1)N(CC=C(C)CCC=C(C)CCC=C(C)C)C(=O)c1cccc(OC(C)=O)c1N2
4. CC(=O)Oc1cc(OC(C)=O)c2c(c1)N(CC=C(C)CCC=C(C)CCC=C(C)C)C(=O)c1cccc(OC(C)=O)c1N2
5. CC(=O)Oc1cccc2c1Nc1c(OC(C)=O)cc(O)cc1N(CC=C(C)CCC=C(C)CCC=C(C)C)C2=O

Result:
8%
51%
71%
83%
90%

###

# Tested on: central benzodiazepine receptor (CBR; GABAA)
# PROCEDURE DETAILS: CBR (GABAA) radioligand binding assay, [3H]flunitrazepam, rat brain
# STUDY CONDITIONS: 10 μM
METRIC: Percentage of inhibition or binding activity, CBR (%)
Numbers only, in %.

// worked examples, Percentage of inhibition or binding activity, CBR included
CC(C)CCCC(C)CCCC(C)CCN1C(=O)c2cccc(O)c2Nc2c(O)cc(O)cc21 (centres unmarked) : 27
CC(=O)Oc1cccc2c1Nc1c(OC(C)=O)cc(O)cc1N(CC=C(C)CCC=C(C)CCC=C(C)C)C2=O : 5
COc1cccc2c1Nc1c(OC)cc(O)cc1N(CC=C(C)CCC=C(C)CCC=C(C)C)C2=O : 21
CC(=O)Oc1cc(O)c2c(c1)N(CC=C(C)CCC=C(C)CCC=C(C)C)C(=O)c1cccc(OC(C)=O)c1N2 : 20

Please find the next molecule below.
Q: Returns the measured Percentage of inhibition or binding activity, CBR for the input molecule. Input: CC(=O)Oc1cc(OC(C)=O)c2c(c1)N(CC=C(C)CCC=C(C)CCC=C(C)C)C(=O)c1cccc(OC(C)=O)c1N2
Result: −24

###

# PROCEDURE DETAILS: TLN-4601 concentrations in plasma and tissues of rats with C6 orthotopic brain tumors
# Assay type: in vivo
# STUDY CONDITIONS: Sprague-Dawley, rat, liver, intravenous; CIV for 60 min; read-out: concentration in liver
# Experimental: (R)-1-(2-chlorophenyl)-[…]N-(1-methyl-propyl)-3-isoquinoline carboxamide (R N-desmethyl PK11195), the precursor for the radioisotope-labeled (R)-PK11195, was purchased from ABX (Radeburg, Germany). […] Attenuation correction factors, for each 6 rats, were determined using a 10 minute 57 Co transmission scan acquired immediately prior to the dynamic scan. […]
METRIC: concentration at 60 min (ng/g)
Give bare numbers, in ng/g.

Q: Returns the measured concentration at 60 min for the input compound. Input: CC(C)=CCC/C(C)=C/CC/C(C)=C/CN1C(=O)c2cccc(O)c2Nc2c(O)cc(O)cc21 [Compound 1]
Result: 24800

###

# Test system: ACAT
# PROCEDURE DETAILS: ACAT enzyme assay, [14C]cholesterol ester quantitation
# Format: biochemical, rat
# STUDY CONDITIONS: 10 μM
METRIC: Percentage of inhibition or binding activity, ACAT (%)
Answers are plain numbers, in %.

CC(=O)Oc1cc(OC(C)=O)c2c(c1)N(CC=C(C)CCC=C(C)CCC=C(C)C)C(=O)c1cccc(O)c1N2 : 77
COc1cc(O)cc2c1Nc1c(O)cccc1C(=O)N2C/C=C(\C)CC/C=C(\C)CCC=C(C)C : 60

Q: Returns the measured Percentage of inhibition or binding activity, ACAT for the input molecule. Input: CC(C)=CCC/C(C)=C/CC/C(C)=C/CN1C(=O)c2cccc(O)c2N(Cc2ccccc2)c2c(O)cc(O)cc21
Result: 63

###

# Test system: SRBC
# PROCEDURE DETAILS: Hemolysis of SRBC
# Type: cell-based
METRIC: Hemolysis ED50 (concentration necessary to achieve 50% hemolysis of SRBC)

// for each molecule below, give its Hemolysis ED50 (concentration necessary to achieve 50% hemolysis of SRBC)
1. COc1cccc2c1Nc1c(OC)cc(O)cc1N(CC=C(C)CCC=C(C)CCC=C(C)C)C2=O
2. CC(C)=CCC/C(C)=C/CC/C(C)=C/CN1C(=O)c2cccc(O)c2Nc2c(O)cc(O)cc21
3. CC(=O)Oc1cc(OC(C)=O)c2c(c1)N(CC=C(C)CCC=C(C)CCC=C(C)C)C(=O)c1cccc(O)c1N2
4. COc1cccc2c1Nc1c(O)cc(O)cc1N(C/C=C(\C)CC/C=C(\C)CCC=C(C)C)C2=O
5. CCCCN1c2c(O)cccc2C(=O)N(C/C=C(\C)CC/C=C(\C)CCC=C(C)C)c2cc(O)cc(O)c21

Result:
1: >64 µg/mL; 2: 7.6 µg/mL; 3: >64 µg/mL; 4: >64 µg/mL; 5: >64 µg/mL

###

# Test system: SRBC
# PROCEDURE DETAILS: Hemolysis of SRBC
# Format: cell-based
METRIC: Hemolysis ED50 (concentration necessary to achieve 50% hemolysis of SRBC) (µg/mL)
Numbers only, in µg/mL.

CC(=O)Oc1cc(O)c2c(c1)N(CC=C(C)CCC=C(C)CCC=C(C)C)C(=O)c1cccc(OC(C)=O)c1N2 : 9.8
COC(C)(CCC=C(C)C)CCC/C(C)=C/CN1C(=O)c2cccc(O)c2Nc2c(O)cc(O)cc21 (stereo not shown) : 12.4
[2H]C([2H])([2H])N1c2c(O)cccc2C(=O)N(C/C=C(\C)CC/C=C(\C)CCC=C(C)C)c2cc(O)cc(O)c21 : 4.5
CCC(C)N1c2c(O)cccc2C(=O)N(C/C=C(\C)CC/C=C(\C)CCC=C(C)C)c2cc(O)cc(O)c21 (stereo not shown) : 60.9
CC(C)CCCC(C)CCCC(C)CCN1C(=O)c2cccc(O)c2Nc2c(O)cc(O)cc21 (stereo not shown) : 13.9

Please find the next compound below.
Q: Returns the measured Hemolysis ED50 (concentration necessary to achieve 50% hemolysis of SRBC) for the input compound. Input: CCN1c2c(O)cccc2C(=O)N(C/C=C(\C)CC/C=C(\C)CCC=C(C)C)c2cc(O)cc(O)c21
Result: 43.9
